# Test system: ErbB3 mRNA
# assay.comment: ErbB3 mRNA level by qRT-PCR in A549 cells
# Assay type: cell-based, human
# run.conditions: ON180 alone, FIG. 1C, read-out: expression of ErbB3 mRNA IC50
pIC50: −log10 of the molar value. Oligonucleotides are written 5' to 3', each unit as a sugar letter and its base; * is a phosphorothioate linkage, no mark a phosphodiester; rarer units and linkages stand in square brackets, end groups in braces. Plain capitals give the bases only. l = locked nucleic acid (LNA); [5mC] = 5-methylcytosine; d = 2'-deoxy (DNA)
observed.property: pIC50

5′-TsAsGscscstsgstscsascststs^MeCsTs^MeC-3′ (lT*lA*lG*dC*dC*dT*dG*dT*dC*dA*dC*dT*dT*l[5mC]*lT*l[5mC]) [ON180]; > 8.70

Where do these numbers come from? They come from patent US20120004285A1.
